PROTOCOL_NOTES: Oral bioavailability in dog at 2.5 mg/kg
MEASUREMENT_PARAMETERS: in vivo
OBSERVED_PROPERTY: bioavailability

Consider the compound CC(C)c1ccc2c(Nc3cc(C(=O)N[C@@H](C)c4ccccc4)ccc3Sc3ccc(N)cc3)ncnc2n1 and give its measured bioavailability.
18.8%

---

Test system: Hepatitis C virus
PROTOCOL_NOTES: Antiviral activity against Hepatitis C virus genotype 1a by replicon assay
Assay type: functional, organism-based, Hepacivirus hominis
MEASUREMENT_PARAMETERS: subtype 1a
pEC50: −log10 of the molar value.
Classify on pEC50 using low: < 6; moderate: ≥ 6 and < 7; high: ≥ 7

Previously resolved entries follow.
CC(C)c1ccc2c(Nc3cc(C(=O)N[C@@H](C)c4ccccc4)ccc3Oc3ccc(N)cc3)ncnc2n1    low
C[C@H](NC(=O)c1ccc(Sc2ccc(N)cc2)c(Nc2ncnc3nc(C(C)(C)C)ccc23)c1)c1ccccc1    high
C[C@H](NC(=O)c1ccc(Sc2ccc(N)cc2)c(Nc2ncnc3ncccc23)c1)c1ccccc1    low
CC(C)c1ccc2c(Nc3cc(C(=O)N[C@@H](C)c4ccc(Br)cc4)ccc3Sc3ccc(N)cc3)ncnc2n1    high
CC(C)c1ccc2c(Nc3cc(C(=O)N[C@@](C)(CO)c4ccccc4)ccc3Sc3ccc(N)cc3)ncnc2n1    moderate

Which category does the recorded pEC50 put CC(C)c1ccc2c(Nc3cc(C(=O)NC(C)c4ccccc4F)ccc3Sc3ccc(N)cc3)ncnc2n1 (stereo not given) in?
moderate

Which category does the recorded pEC50 put CC(C)c1ccc2c(Nc3cc(C(=O)NC(C)(C)c4ccccc4)ccc3Sc3ccc(N)cc3)ncnc2n1 in?
moderate

Which category does the recorded pEC50 put CC(C)c1ccc2c(Nc3cc(C(=O)N[C@@H](C)c4cccc(C(F)(F)F)c4)ccc3Sc3ccc(N)cc3)ncnc2n1 in?
moderate

---

Quick list: EC50 per entry.
Tested on: Hepatitis C virus
PROTOCOL_NOTES: Antiviral activity against Hepatitis C virus genotype 1b by replicon assay
Type: functional, organism-based, Hepacivirus hominis
# number only, unit nM dropped from output

CC(C)c1ccc2c(Nc3cc(C(=O)N[C@@](C)(CO)c4ccccc4)ccc3Sc3ccc(N)cc3)ncnc2n1    2

Consider the compound CC(C)c1ccc2c(Nc3cc(C(=O)NC(C)c4cccc(F)c4)ccc3Sc3ccc(N)cc3)ncnc2n1 (stereo not given) and give its measured EC50.
15

Consider the compound CC(C)c1ccc2c(Nc3cc(C(=O)N[C@@H](C)c4ccccc4)ccc3Sc3ccc(O)cc3)ncnc2n1 and give its measured EC50.
120

Consider the compound CC(C)c1ccc2c(Nc3cc(C(=O)N[C@@H](C)c4ccccc4)ccc3Sc3ccc(N)cc3)ncnc2n1 and give its measured EC50.
7

Consider the compound CC[C@H](NC(=O)c1ccc(Sc2ccc(N)cc2)c(Nc2ncnc3nc(C(C)C)ccc23)c1)c1ccccc1 and give its measured EC50.
33

Consider the compound CC(C)c1ccc2c(Nc3cc(C(=O)N[C@@H](C)c4ccc(F)cc4)ccc3Sc3ccc(N)cc3)ncnc2n1 and give its measured EC50.
2

---

Quick list: pEC50 per entry.
Test system: Hepatitis C virus
PROTOCOL_NOTES: Antiviral activity against Hepatitis C virus genotype 1a by replicon assay
Format: functional, organism-based, Hepacivirus hominis
MEASUREMENT_PARAMETERS: subtype 1a
To interpret pEC50, take it as minus log10 of a concentration measured in moles per litre.

CC(C)c1ccc2c(Nc3cc(C(=O)NC(C)c4cccc(F)c4)ccc3Sc3ccc(N)cc3)ncnc2n1 (configuration not stated)    7.04
Cc1cccc(C(C)NC(=O)c2ccc(Sc3ccc(N)cc3)c(Nc3ncnc4nc(C(C)C)ccc34)c2)c1 (configuration not stated)    7.00
CC(C)c1ccc2c(Nc3cc(C(=O)N[C@@H](C)c4ccc5ccccc5c4)ccc3Sc3ccc(N)cc3)ncnc2n1    6.47
CC(=O)Nc1ccc(Sc2ccc(C(=O)N[C@@H](C)c3ccccc3)cc2Nc2ncnc3nc(C(C)C)ccc23)cc1    5.30

Consider the compound CC(C)c1ccc2c(Nc3cc(C(=O)NC4(c5ccccc5)CC4)ccc3Sc3ccc(N)cc3)ncnc2n1 and give its measured pEC50.
5.97

Consider the compound CC(C)c1ccc2c(Nc3cc(C(=O)N[C@H](C)c4ccccc4)ccc3Sc3ccc(N)cc3)ncnc2n1 and give its measured pEC50.
6.74

Consider the compound CC(C)c1ccc2c(Nc3cc(C(=O)N[C@H](CCO)c4ccccc4)ccc3Sc3ccc(N)cc3)ncnc2n1 and give its measured pEC50.
5.49

Consider the compound CC(C)c1ccc2c(Nc3cc(C(=O)NC(C)c4ccccn4)ccc3Sc3ccc(N)cc3)ncnc2n1 (configuration not stated) and give its measured pEC50.
6.04

Consider the compound CC(C)c1ccc2c(Nc3cc(C(=O)N[C@H]4CCc5ccccc54)ccc3Sc3ccc(N)cc3)ncnc2n1 and give its measured pEC50.
6.35

---

Test system: Hepatitis C virus
PROTOCOL_NOTES: Antiviral activity against Hepatitis C virus genotype 1b by replicon assay
Format: functional, organism-based, Hepacivirus hominis
Quick list: pEC50 per entry.
To interpret pEC50, take it as minus log10 of a concentration measured in moles per litre.

COc1cccc([C@H](C)NC(=O)c2ccc(Sc3ccc(N)cc3)c(Nc3ncnc4nc(C(C)C)ccc34)c2)c1    8.40

Consider the compound CC(C)c1ccc2c(Nc3cc(C(=O)N[C@@H]4CCc5ccccc54)ccc3Sc3ccc(N)cc3)ncnc2n1 and give its measured pEC50.
7.89

Consider the compound CC(C)c1ccc2c(Nc3cc(C(=O)NC(C)c4cccc(Br)c4)ccc3Sc3ccc(N)cc3)ncnc2n1 (centres undefined) and give its measured pEC50.
8.05

Consider the compound CC(C)c1ccc2c(Nc3cc(C(=O)N[C@@H](C)c4ccccc4C(F)(F)F)ccc3Sc3ccc(N)cc3)ncnc2n1 and give its measured pEC50.
7.70

---

Test system: Hepatitis C virus
PROTOCOL_NOTES: Antiviral activity against Hepatitis C virus genotype 1a by replicon assay
Format: functional, organism-based, Hepacivirus hominis
MEASUREMENT_PARAMETERS: subtype 1a
OBSERVED_PROPERTY: EC50 (nM)
# number only, unit nM dropped from output

Consider the molecule CC(C)c1ccc2c(Nc3cc(C(=O)NCc4ccccc4)ccc3Sc3ccc(N)cc3)ncnc2n1 and give its measured EC50.
150

Consider the molecule CC(C)c1ccc2c(Nc3cc(C(=O)N[C@@H](C)C4CCCCC4)ccc3Sc3ccc(N)cc3)ncnc2n1 and give its measured EC50.
240

Consider the molecule COc1ccccc1C(C)NC(=O)c1ccc(Sc2ccc(N)cc2)c(Nc2ncnc3nc(C(C)C)ccc23)c1 (stereo not drawn) and give its measured EC50.
610

Consider the molecule CC(C)c1ccc2c(Nc3cc(C(=O)N[C@@H](C)c4ccccc4)ccc3Sc3ccc(N)cc3)ncnc2n1 and give its measured EC50.
45

Consider the molecule Cc1ccc2c(Nc3cc(C(=O)N[C@@H](C)c4ccccc4)ccc3Sc3ccc(N)cc3)ncnc2n1 and give its measured EC50.
1200

Consider the molecule CC(C)c1ccc2c(Nc3cc(C(=O)N[C@@H](C)c4ccccc4C(F)(F)F)ccc3Sc3ccc(N)cc3)ncnc2n1 and give its measured EC50.
370

Consider the molecule CC(C)c1ccc2c(Nc3cc(C(=O)NC(C)c4ccc(C(F)(F)F)cc4)ccc3Sc3ccc(N)cc3)ncnc2n1 (stereo not drawn) and give its measured EC50.
66

Consider the molecule CC(C)c1ccc2c(Nc3cc(C(=O)N[C@H](c4ccccc4)C(F)(F)F)ccc3Sc3ccc(N)cc3)ncnc2n1 and give its measured EC50.
13

Consider the molecule CC(C)c1ccc2c(Nc3cc(C(=O)NC(C)c4cccc(Br)c4)ccc3Sc3ccc(N)cc3)ncnc2n1 (stereo not drawn) and give its measured EC50.
33

Consider the molecule C[C@H](NC(=O)c1ccc(Sc2ccc(N)cc2)c(Nc2ncnc3nc(C(F)(F)F)ccc23)c1)c1ccccc1 and give its measured EC50.
200

Consider the molecule COc1cccc([C@H](C)NC(=O)c2ccc(Sc3ccc(N)cc3)c(Nc3ncnc4nc(C(C)C)ccc34)c2)c1 and give its measured EC50.
24

Consider the molecule CC(C)c1ccc2c(Nc3cc(C(=O)NC(C)c4cccnc4)ccc3Sc3ccc(N)cc3)ncnc2n1 (stereo not drawn) and give its measured EC50.
1420

Consider the molecule CC[C@H](NC(=O)c1ccc(Sc2ccc(N)cc2)c(Nc2ncnc3nc(C(C)C)ccc23)c1)c1ccccc1 and give its measured EC50.
35
